- TARGET DESC: STING AQ: His-TVMV-S-hSTING(155-341)-G230A-R293Q (Homo sapiens, UniProt Q86WV6, G230A/H232R/R293Q)
- Construct: STING AQ: His-TVMV-S-hSTING(155-341)-G230A-R293Q
- Sequence (Q86WV6 with tags, fused parts or gaps G230A/H232R/R293Q): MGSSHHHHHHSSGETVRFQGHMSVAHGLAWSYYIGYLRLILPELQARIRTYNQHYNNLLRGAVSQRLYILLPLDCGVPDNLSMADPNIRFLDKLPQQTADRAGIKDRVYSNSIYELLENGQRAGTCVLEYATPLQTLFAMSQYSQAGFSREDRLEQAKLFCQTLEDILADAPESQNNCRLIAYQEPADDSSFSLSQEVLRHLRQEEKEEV
- EXPERIMENT SUMMARY: STING HTRF Binding Assay, STING AQ
- EXPERIMENTAL CONTEXT: 20 nM His-tagged STING cytoplasmic domain, 40 nM fluorescein-labeled cGAMP analog probe, one hour; read-out: HTRF Binding Assays IC50 (μM) STING AQ
- Procedure: A time resolved FRET-based competition binding assay was used to assess test article binding to STING WT and STING AQ. […] Fluorescence at 495 nm and 520 nm was measured using an EnVision microplate reader to quantify FRET between Tb-labeled anti-His antibody and fluorescein-labeled probe. […] Percent inhibition was determined for test compounds at 11 concentrations. […]
RECORDED ENDPOINT: IC50 (µM)

NC(=O)c1cccc2c1nnn2[C@@H]1O[C@@H]2COP(=O)(S)O[C@H]3[C@@H](F)[C@H](n4cnc5c(N)ncnc54)O[C@@H]3COP(=O)(S)O[C@H]2[C@H]1F (single isomer, unassigned) [Example 4-2]	0.24
Nc1ncnc2c1ncn2[C@@H]1O[C@@H]2COP(=O)(S)O[C@H]3[C@@H](O)[C@H](n4cnc5c(=O)n6ccnc6[nH]c54)O[C@@H]3COP(=O)(S)O[C@H]2[C@H]1F (single isomer, unassigned) [Example 1-1]	0.01
Nc1ncnc2c1ncn2[C@@H]1O[C@@H]2COP(=O)(S)O[C@H]3[C@@H](F)[C@H](n4cnc5c4ncn4ncnc54)O[C@@H]3COP(=O)(S)O[C@H]2[C@H]1F (single isomer, unassigned) [Example 12-3]	0.003
NC(=O)c1cc([C@@H]2O[C@@H]3COP(=O)(S)O[C@H]4[C@@H](F)[C@H](n5cnc6c(N)ncnc65)O[C@@H]4COP(=O)(S)O[C@H]3[C@H]2O)[nH]n1 (single isomer, unassigned) [Example 6-3]	16.2
Nc1nc2c(ncn2[C@@H]2O[C@@H]3COP(=O)(O)O[C@H]4[C@@H](O)[C@H](n5cnc6c(N)ncnc65)O[C@@H]4COP(=O)(S)O[C@H]3[C@H]2O)c(=O)[nH]1 (stereo partly drawn)	0.83
Nc1nc2c(ncn2[C@@H]2O[C@@H]3COP(=O)(O)O[C@H]4[C@@H](O)[C@H](n5cnc6c5ncn5ccnc65)O[C@@H]4COP(=O)(S)O[C@H]3[C@H]2O)c(=O)[nH]1 (stereo partly drawn)	5.65
Nc1ncnc2c1ncn2[C@@H]1O[C@@H]2COP(=O)(S)O[C@H]3[C@@H](F)[C@H](n4cnc5c4ncn4ccnc54)O[C@@H]3COP(=O)(S)O[C@H]2[C@H]1F (single isomer, unassigned) [Example 21-3]	0.01
Nc1ncnc2c1ncn2[C@@H]1O[C@@H]2COP(=O)(O)O[C@H]3[C@@H](F)[C@H](n4cnc5c4ncn4ccnc54)O[C@@H]3COP(=O)(O)O[C@H]2[C@H]1F	0.02
Nc1ncnc2c1ncn2[C@@H]1O[C@@H]2COP(=O)(S)O[C@H]3[C@@H](O)[C@H](n4nnc5c([N+](=O)[O-])cccc54)O[C@@H]3COP(=O)(O)O[C@H]2[C@H]1F (single isomer, unassigned) [Example 13-1]	1.44
